Taken from PubChem BioAssay (NCI).

Tested on: IGROV1 ovarian
ASSAY_COMMENT: NCI-60 one-dose screen, 48 h
CONDITION_SUMMARY: 10 µM unless noted
This is part of a sample that, as a whole, favours compounds with a hit. Of some 83,000 tested, about 20% had one in any assay. Active and inactive are the calls of the source. How the source made its calls: active means growth percent below 10; inactive means the rest.
Classes used: yes (1) = active, no (0) = inactive

molecule=Cc1ccc(S(=O)(=O)Nc2cc(Sc3ccccc3)c(O)c3ccccc23)cc1 class_assignment="no (0)"
molecule=O=C1CCc2c(sc3[nH]c(=S)n(Cc4ccc(Cl)cc4)c(=O)c23)C1 class_assignment="no (0)"
molecule=Cc1c(C(=O)OCCCCOC(=O)c2c(C)n(C)c3scc[n+]23)[n+]2ccsc2n1C class_assignment="no (0)"
molecule="CCCCCCCCN(CCCCCCCC)CC(O)c1cc(Cl)ccc1OC (stereo unspecified)" class_assignment="no (0)"
molecule="C=C(CNCCO)[C@@H]1CC[C@]2(CO)CC[C@]3(C)[C@H](CC[C@@H]4[C@@]5(C)CCC(NCCc6ccc(O)cc6)C(C)(C)[C@@H]5CC[C@]43C)[C@@H]12 (stereo partly specified)" class_assignment="yes (1)"
molecule=O=C(NCc1ccc(Cn2c(=O)sn(-c3ccc(Cl)cc3)c2=O)cc1)OCc1ccc2c(Cl)cc(Cl)c(O)c2n1 class_assignment="no (0)"
molecule=Brc1ccc(/C=C(/C2=NCCN2)n2ccc3ccccc32)cc1 class_assignment="no (0)"
molecule=COc1ccc(C(=O)N/N=C/c2ccc(O)cc2O)cc1Nc1ccnc(C(F)(F)F)c1 class_assignment="no (0)"
molecule=O=C1Nc2ccccc2/C1=C/c1cccn1CCCCCn1c2ccccc2c(=O)c2ccccc21 class_assignment="no (0)"
molecule=CC1=C2[C@@H](CC1)[C@]1(C)O[C@@](C3CC3)(C[C@H]1OC(=O)CO)[C@H]2OC(=O)/C=C/c1ccccc1 class_assignment="no (0)"
molecule=Cc1nc2sc(C(=O)Nc3cccc4ccccc34)c(N)c2cc1C(=O)/C=C/c1ccccc1 class_assignment="yes (1)"
molecule=CCOc1nc(-c2ccccc2)cc2c(O)c(C(=O)N/N=C/c3ccc(N(C)C)cc3)[nH]c(=O)c12 class_assignment="no (0)"
molecule="N=C1/C(=C2\\NC3C=CC=CC3S2)C(c2ccc(Cl)cc2)C2C(=O)N(c3ccccc3)C(=S)N12 (stereo unspecified)" class_assignment="no (0)"
molecule=CCCCC#Cc1c(/C=C(\CCCC)SCC)n(C)c(=O)[nH]c1=O class_assignment="no (0)"
molecule="O=C1OCC2=C1C(c1cccc(C(F)(F)F)c1)c1cc3c(cc1N2CCO)OCCO3 (stereo unspecified)" class_assignment="no (0)"
molecule="CCCCCC#CC1OC23CCCCC2C(C#N)(C(=N)O3)C1(C#N)C#N (stereo unspecified)" class_assignment="no (0)"
molecule=C#CCn1cnc2cnc(Nc3cccc(NC(=O)CCl)c3)nc21 class_assignment="yes (1)"
molecule=O=S(=O)(Nc1cc(Sc2cccc3cccnc23)c(O)c2ccccc12)c1ccc(F)cc1 class_assignment="yes (1)"
molecule=CCCCCCCCCCCCCCCCCCn1cc(COc2ccc(C=O)cc2)nn1 class_assignment="no (0)"
molecule=Cc1ccc(-c2nc3nc(-c4ccccc4)nc(N4CCN(S(=O)(=O)c5ccccc5)CC4)c3o2)cc1 class_assignment="no (0)"
molecule=CN1CCN(c2ccc(/C=C/C(=O)c3ccc(O)cc3)cc2)CC1 class_assignment="no (0)"
molecule="CCCCCCCCCCCCCCCC(=O)O[C@@H]1[C@@H](O)[C@@H](O)C([C@H](NC(=O)[C@@H]2C[C@@H](CCC)CN2C)[C@H](C)Cl)O[C@@H]1SC (stereo partly specified)" class_assignment="no (0)"
molecule="CCCN1C(=O)/C(=c2\\sc3n(c2=O)C2C(NN=3)N(CC)C(=O)N2CC)c2ccccc21 (stereo unspecified)" class_assignment="no (0)"
molecule=COc1cc(-c2nn(-c3cccc(NC(=O)CCN4CCN(C)CC4)c3)cc2-c2ccncc2)ccc1Cl class_assignment="no (0)"
molecule=COc1ccc(Cn2cc(C(=O)Nc3cccnc3Nc3ccccc3)nn2)cc1 class_assignment="no (0)"
molecule="CC[C@]1(O)CC2CN(CCc3c([nH]c4ccccc34)C(C(=O)OC)(c3cc4c(cc3OC)N(C=O)[C@H]3[C@@](O)(C(=O)OC)[C@H](OC(C)=O)[C@]5(CC)[C@@H]6C[C@@H]6CN6CC[C@]43[C@@H]65)C2)C1 (stereo partly specified)" class_assignment="yes (1)"
molecule=OCCN1CCN(CC/C=C2\c3ccccc3Sc3ccc(Cl)cc32)CC1 class_assignment="no (0)"
molecule=O=C1c2cc3c(cc2-c2c1c1ccc(Cl)cc1c(=O)n2CCCn1ccnc1)OCO3 class_assignment="no (0)"
molecule=CC(=O)OC[C@]12CCC(C)(C)C=C1[C@H]1CC[C@@H]3[C@@]4(C)CCCNC(C)(C)[C@@H]4CC[C@@]3(C)[C@]1(C)CC2 class_assignment="no (0)"
molecule=CCCCCCCCCCCCC[C@H](O)C[C@H](O)[C@H](C)N class_assignment="no (0)"
molecule=CCC(=C(c1ccc(OCCCN(C)C)cc1)c1ccc(OCCCN(C)C)cc1)c1ccc(Cl)cc1 class_assignment="yes (1)"
molecule=Nn1c(-c2ccc(Cl)cc2)nc2c(-c3ccc(Cl)cc3)nc3ccc(Cl)cc3c2c1=O class_assignment="yes (1)"
molecule=COc1cc(C=O)ccc1Oc1ccc([N+](=O)[O-])cc1[N+](=O)[O-] class_assignment="no (0)"
molecule=CON1CCC[C@]2(C)[C@H]3CC[C@@H]4[C@H]5[C@@H](O)C(C)(C)CC[C@]5(CO)CC[C@@]4(C)[C@]3(C)CC[C@H]2C1(C)C class_assignment="no (0)"
molecule=O=C(Nc1ccc2ccccc2c1)c1cc2ccccc2cc1O class_assignment="no (0)"
molecule="CCOC(=O)CC1CSC(c2cccc(Cl)c2)=N1 (stereo unspecified)" class_assignment="no (0)"
